- tested.system: mu opioid receptor (Rattus norvegicus, UniProt P33535)
- Construct: the forebrains were homogenized in Tris buffer in a Teflon®-glass homogenizer; from tissue; host or cells: forebrain of male Wistar rats (particulate membrane preparation)
- Sequence (P33535 whole entry): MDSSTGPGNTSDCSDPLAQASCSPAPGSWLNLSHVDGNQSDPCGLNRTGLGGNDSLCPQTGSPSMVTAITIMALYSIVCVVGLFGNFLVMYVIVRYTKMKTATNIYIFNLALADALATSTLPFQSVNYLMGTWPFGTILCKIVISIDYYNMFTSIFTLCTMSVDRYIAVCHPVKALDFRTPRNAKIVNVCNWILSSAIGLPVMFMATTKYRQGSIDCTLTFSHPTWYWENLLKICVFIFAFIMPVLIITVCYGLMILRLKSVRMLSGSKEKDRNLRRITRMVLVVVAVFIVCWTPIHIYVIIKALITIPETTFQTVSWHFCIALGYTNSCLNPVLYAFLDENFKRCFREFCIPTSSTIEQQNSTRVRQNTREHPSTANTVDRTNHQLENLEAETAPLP
- assay.summary: Rat brain mu opioid receptor binding assay
- test.conditions: rat forebrain membranes; [3H]DAMGO, 25° C., 2.5 h; read-out: rMOR (Ki, nM): Rat mu opioid receptor binding constant
- Protocol: Rat Brain Mu Opioid Receptor Binding Assay Procedure: Male, Wistar rats (150-250 g, VAF, Charles River, Kingston, N.Y.) were killed by CO2, and their brains removed and placed immediately in ice cold Tris HCl buffer (50 mM, pH 7.4). […] Analysis: The data from the scintillation counter were used to calculate either the % inhibition compared to control binding (when only a single concentration of test compound was evaluated) or a Ki value (when a range of concentrations tested). […]
parameter.measured: Ki (nM)
Response body: numeric value in nM, unit text excluded.

* Oc1cccc2c1Oc1ccccc1C2=C1CC2CCC(C1)N2Cc1c[nH]c(-c2ccccc2)n1 [Cpd 28] | 58.5
* CC=C(C)CN1C2CCC1CC(=C1c3ccccc3Oc3c(O)cccc31)C2 [Cpd 27] | 2.03
* Oc1cc(CN2C3CCC2CC(=C2c4ccccc4Oc4c(O)cccc42)C3)ccn1 [Cpd 23] | 2.18

API: the following record is the query input.
### Prompt Which measured Ki belongs to Oc1cccc2c1Oc1ccccc1C2=C1CC2CCC(C1)N2Cc1ncc[nH]1 [Cpd 34] , tested on mu opioid receptor (Rattus norvegicus, UniProt P33535)?
### Response 0.53

---

- tested.system: mu opioid receptor (Rattus norvegicus, UniProt P33535)
- Construct: the forebrains were homogenized in Tris buffer in a Teflon®-glass homogenizer; from tissue; host or cells: forebrain of male Wistar rats (particulate membrane preparation)
- assay.summary: Rat brain mu opioid receptor binding assay
- test.conditions: rat forebrain membranes; [3H]DAMGO, 25° C., 2.5 h; read-out: rMOR (Ki, nM): Rat mu opioid receptor binding constant
parameter.measured: Ki

Past entries and their recorded results:
* NC(=O)c1cccc2c1Oc1ccccc1C2=C1C[C@H]2CC[C@@H](C1)N2C(=O)C(F)(F)F (single isomer, unassigned) [Cpd 36] | > 10000 nM
* N=C(NO)c1cccc2c1Oc1ccccc1C2=C1CC2CCC(C1)N2 (single isomer, unassigned) [Cpd 43] | > 10000 nM

API: the following record is the query input.
### Prompt Need Ki of NC(=O)c1cccc2c1Oc1ccccc1C2=C1C[C@H]2CC[C@@H](C1)N2C(=O)C(F)(F)F (single isomer, unassigned) [Cpd 38] , thanks.
### Response > 10000 nM
